// R1 = Variant EC50/WT EC50 lookup, one value per entry
- tested_on: human TAS1R2-R838K/TAS1R3-WT (Homo sapiens, UniProt Q7RTX0+Q8TE23, R838K)
- Construct: expressed in transfected cells; host or cells: HEK293T-Gα16gust44
- Sequence (Q8TE23 20-839 R838K): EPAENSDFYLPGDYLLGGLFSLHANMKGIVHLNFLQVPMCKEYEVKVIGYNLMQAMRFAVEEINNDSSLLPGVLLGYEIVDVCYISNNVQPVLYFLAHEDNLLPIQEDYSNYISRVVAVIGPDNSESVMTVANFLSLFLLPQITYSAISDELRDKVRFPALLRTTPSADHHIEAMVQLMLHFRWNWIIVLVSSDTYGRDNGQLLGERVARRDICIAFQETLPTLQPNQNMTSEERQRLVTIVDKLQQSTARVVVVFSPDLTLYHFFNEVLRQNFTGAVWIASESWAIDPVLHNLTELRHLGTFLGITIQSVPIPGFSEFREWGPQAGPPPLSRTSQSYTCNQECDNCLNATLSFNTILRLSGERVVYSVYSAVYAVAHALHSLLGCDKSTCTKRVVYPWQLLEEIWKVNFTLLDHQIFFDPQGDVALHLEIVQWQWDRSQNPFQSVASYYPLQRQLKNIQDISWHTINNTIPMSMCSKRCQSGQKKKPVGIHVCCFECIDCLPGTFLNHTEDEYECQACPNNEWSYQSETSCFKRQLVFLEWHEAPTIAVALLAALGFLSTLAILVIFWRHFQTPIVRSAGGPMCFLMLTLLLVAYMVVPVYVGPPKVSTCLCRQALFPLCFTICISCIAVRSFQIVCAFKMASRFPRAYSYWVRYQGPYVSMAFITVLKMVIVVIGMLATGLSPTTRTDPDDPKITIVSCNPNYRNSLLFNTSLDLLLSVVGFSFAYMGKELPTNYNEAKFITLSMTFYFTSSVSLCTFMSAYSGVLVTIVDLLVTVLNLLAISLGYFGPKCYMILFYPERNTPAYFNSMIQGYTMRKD
- Sequence (Q7RTX0 21-852): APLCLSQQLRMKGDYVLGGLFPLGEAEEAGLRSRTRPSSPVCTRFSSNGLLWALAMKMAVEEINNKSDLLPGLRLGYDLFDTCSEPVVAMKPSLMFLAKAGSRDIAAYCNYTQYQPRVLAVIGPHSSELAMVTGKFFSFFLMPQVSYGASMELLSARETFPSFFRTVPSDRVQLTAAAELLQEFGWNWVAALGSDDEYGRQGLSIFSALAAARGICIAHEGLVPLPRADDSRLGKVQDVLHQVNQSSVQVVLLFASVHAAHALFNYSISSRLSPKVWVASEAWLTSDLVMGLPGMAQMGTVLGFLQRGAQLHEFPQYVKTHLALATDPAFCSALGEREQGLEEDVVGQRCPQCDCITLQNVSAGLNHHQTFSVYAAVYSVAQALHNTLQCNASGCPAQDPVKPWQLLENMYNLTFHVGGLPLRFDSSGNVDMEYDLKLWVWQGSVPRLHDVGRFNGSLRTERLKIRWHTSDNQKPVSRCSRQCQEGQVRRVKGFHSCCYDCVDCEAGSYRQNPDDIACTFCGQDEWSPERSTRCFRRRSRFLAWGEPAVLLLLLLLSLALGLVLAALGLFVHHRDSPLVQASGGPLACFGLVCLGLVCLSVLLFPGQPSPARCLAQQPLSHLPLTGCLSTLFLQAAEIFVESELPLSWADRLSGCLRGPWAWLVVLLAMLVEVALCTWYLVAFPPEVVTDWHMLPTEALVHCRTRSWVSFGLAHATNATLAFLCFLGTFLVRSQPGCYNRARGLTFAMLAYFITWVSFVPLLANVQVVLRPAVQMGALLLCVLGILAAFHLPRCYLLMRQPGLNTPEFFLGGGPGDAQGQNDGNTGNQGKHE
- protocol: Calcium mobilisation assay, TAS1R2 variant R838K with TAS1R3-WT
- Type: cell-based
// return just the number, without any unit appended

Req: Field: R1 = Variant EC50/WT EC50 (human TAS1R2-R838K/TAS1R3-WT (Homo sapiens, UniProt Q7RTX0+Q8TE23, R838K)). Entry: C=C1C[C@@]23CC[C@H]4[C@@](C)(CCC[C@@]4(C)C(=O)O[C@@H]4O[C@H](CO)[C@@H](O)[C@H](O[C@@H]5O[C@H](CO)[C@@H](O)[C@H](O)[C@H]5O)[C@H]4O[C@@H]4O[C@H](CO)[C@@H](O)[C@H](O)[C@H]4O)[C@@H]2CC[C@]1(O[C@@H]1O[C@H](CO)[C@@H](O)[C@H](O[C@@H]2O[C@H](CO)[C@@H](O)[C@H](O)[C@H]2O)[C@H]1O[C@@H]1O[C@H](CO)[C@@H](O)[C@H](O)[C@H]1O)C3 [Rebaudioside M, rebaudioside M]
Resp: 1.1

Continuing:
Req: Field: R1 = Variant EC50/WT EC50 (human TAS1R2-R838K/TAS1R3-WT (Homo sapiens, UniProt Q7RTX0+Q8TE23, R838K)). Entry: C=C(C)[C@@H]1CC=C(/C=N/O)CC1 [Perillartine, perillartine]
Resp: 1.1
